Origin of measurements: PubChem BioAssay AID2763

# assay.procedure: Concentration response confirmation VP16 counterscreen for inhibitors of ROR gamma transcriptional activity; also: nearly all actives have a fitted effect of over 70% in size
# condition.details: Drosophila S2 Gal4-VP16 UAS-luciferase, luminescence, 20 h; series mostly up to 46.1 µM
Records with an inconclusive call do not appear. Active and inactive are the calls of the source. Calls follow the shape of the dose curve; as a rule, active = well fitted inhibition curve with a large enough effect; inconclusive = small, poorly fitted or top-dose-only effect, or effect the other way; inactive = no such curve, though single readings can be large or run the other way.
Labels: yes (1) = active, no (0) = inactive

{"columns": ["compound", "answer.label"],
 "data": [
  ["COc1ccc(/C=C/C(=O)NC(=S)NCC2CCCO2)cc1 (centres undefined)", "yes (1)"],
  ["O=C(O)c1ccccc1SC1CC(=O)N(c2ccc3c(c2)OCO3)C1=O (centres undefined)", "yes (1)"],
  ["CC(C)(C)S(=O)(=O)c1cnc2c(-c3ccc(F)cc3)cnn2c1N", "yes (1)"],
  ["Cc1ccc(-c2noc(CCC(=O)N(C)c3ccccc3C)n2)cc1", "no (0)"],
  ["CCOc1ncccc1C(=O)OCC(=O)Nc1ccc(-c2nc3ccc(C)cc3s2)cc1", "yes (1)"],
  ["CN(Cc1ccccc1)c1ncnc2ccc(Br)cc12", "no (0)"],
  ["c1ccc(Cn2c(-c3ccccc3)c[n+]3c2SCCC3)cc1", "no (0)"],
  ["COc1nc(N/N=C/c2cc3c(cc2Br)OCO3)nc(N2CCOCC2)n1", "no (0)"],
  ["COc1ccccc1CNC(=O)[C@@H](NC(=O)C1CCN(C(=O)[C@@H]2CCCN2C(=O)OC(C)(C)C)CC1)C(C)C", "no (0)"],
  ["CCOC(=O)[C@@H]1[C@H]2COc3ccc(Br)cc3[C@@H]2N2C(=O)N(c3ccccc3)C(=O)[C@@]12C", "no (0)"],
  ["O=C1CC(c2ccc(F)cc2)CC(O)=C1C1NCCc2ccccc21 (centres undefined)", "no (0)"],
  ["COc1ccc(-c2c[n+]3c(n2-c2ccc(C)cc2)CCCCC3)cc1", "yes (1)"],
  ["COC(=O)c1ccc(OCC(=O)c2ccc(O)cc2O)cc1", "yes (1)"],
  ["COC1CCCCC1Nc1cc(C)ccc1C (centres undefined)", "no (0)"],
  ["COc1ccc(C(=O)/C=C/c2ccc(OC)cc2OC)c(O)c1", "no (0)"],
  ["CCN1CCCc2cc(CN(CCN3CCOCC3)C(=S)Nc3ccc(C)cc3)ccc21", "yes (1)"],
  ["CCN(CC)C1CC(=O)N(c2cccc(C)c2)C1=O (centres undefined)", "yes (1)"],
  ["CNC(=O)NC(=O)CSc1nc2cc(C(=O)OC)ccc2c(=O)n1-c1ccccc1", "yes (1)"],
  ["O=C(NC(=S)Nc1nc(-c2ccc(Br)cc2)cs1)c1cccnc1", "no (0)"]
]}
